Data origin: PubChem BioAssay

- MEASUREMENT TARGET: NADPH oxidase 4 (Homo sapiens) (UniProt Q9NPH5)
- Sequence (Q9NPH5 whole entry, looked up): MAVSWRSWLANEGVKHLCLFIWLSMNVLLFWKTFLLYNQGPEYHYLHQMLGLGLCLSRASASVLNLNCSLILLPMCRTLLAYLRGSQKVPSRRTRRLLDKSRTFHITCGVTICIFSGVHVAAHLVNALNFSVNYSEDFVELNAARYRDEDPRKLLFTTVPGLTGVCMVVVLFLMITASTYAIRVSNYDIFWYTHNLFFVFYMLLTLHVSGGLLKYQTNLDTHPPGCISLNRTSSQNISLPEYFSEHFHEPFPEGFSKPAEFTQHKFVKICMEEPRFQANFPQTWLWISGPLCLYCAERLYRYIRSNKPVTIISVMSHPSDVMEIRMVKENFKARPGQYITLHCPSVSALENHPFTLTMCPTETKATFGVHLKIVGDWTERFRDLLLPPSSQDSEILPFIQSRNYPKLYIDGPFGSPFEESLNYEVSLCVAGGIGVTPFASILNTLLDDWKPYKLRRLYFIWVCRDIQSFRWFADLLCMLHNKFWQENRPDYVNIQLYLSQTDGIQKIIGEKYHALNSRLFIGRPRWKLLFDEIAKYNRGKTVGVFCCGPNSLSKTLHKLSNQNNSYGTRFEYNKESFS
- PROTOCOL DESCRIPTION: NOX4-dependent H2O2 signal modulators, primary screen, NOX inhibitor project, cell-based, HEK293-NOX4, tetracycline-induced, Amplex Red fluorescence (AID 1160)
- STATED CONDITIONS: 45 min, higher = more signal, called active from +8 up or from −8 down
READOUT LABEL: z-score

INSERT INTO assay_data (molecule, readout_label, readout_number) VALUES
  ('O=C1O[C@H](c2ccccc2)[C@H](c2ccccc2)N2[C@H]1[C@@H](C(=O)Nc1nc3ccccc3s1)[C@]1(C(=O)Nc3ccc(C#CCCO)cc31)[C@H]2c1ccccc1OCCO', 'z-score', 0.228),
  ('CC(C)C[C@@H]1NC(=O)[C@@]23C(=O)N[C@@H](Cc4ccccc4)C2[C@H](C)[C@@]2(C)O[C@H]2C3/C=C/CC/C=C/CNC(=O)[C@@H](C)NC1=O (stereo partly drawn)', 'z-score', 0.24),
  ('COCCCNC(=O)[C@@]1(C)c2ccccc2C(=O)N(Cc2cc(F)cc(C(F)(F)F)c2)[C@H]1c1ccc(CO)cc1', 'z-score', -1.4);
